# SYSTEM UNDER TEST: human RXFP1 (Homo sapiens, UniProt Q9HBX9)
# Sequence (Q9HBX9 whole entry): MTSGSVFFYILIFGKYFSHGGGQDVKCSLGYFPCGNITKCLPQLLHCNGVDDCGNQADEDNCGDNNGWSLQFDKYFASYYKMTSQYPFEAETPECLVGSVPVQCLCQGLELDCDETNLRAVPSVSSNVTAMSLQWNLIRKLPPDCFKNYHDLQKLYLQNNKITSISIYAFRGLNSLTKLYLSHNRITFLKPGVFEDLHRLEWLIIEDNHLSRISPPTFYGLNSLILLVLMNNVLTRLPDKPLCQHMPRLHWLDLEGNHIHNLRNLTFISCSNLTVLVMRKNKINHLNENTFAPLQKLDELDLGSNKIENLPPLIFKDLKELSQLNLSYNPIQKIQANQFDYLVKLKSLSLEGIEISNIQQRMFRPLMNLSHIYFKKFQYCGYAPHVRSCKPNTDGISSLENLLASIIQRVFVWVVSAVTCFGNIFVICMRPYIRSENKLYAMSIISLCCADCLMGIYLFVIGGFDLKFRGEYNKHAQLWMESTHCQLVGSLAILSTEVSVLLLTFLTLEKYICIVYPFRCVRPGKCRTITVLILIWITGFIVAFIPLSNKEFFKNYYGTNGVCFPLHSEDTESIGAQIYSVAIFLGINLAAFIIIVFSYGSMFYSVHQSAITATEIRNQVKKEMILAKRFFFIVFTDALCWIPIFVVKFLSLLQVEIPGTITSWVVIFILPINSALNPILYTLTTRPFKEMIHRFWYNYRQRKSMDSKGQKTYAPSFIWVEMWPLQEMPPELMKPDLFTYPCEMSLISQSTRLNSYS
# EXPERIMENT SUMMARY: RXFP1 Hu cAMP (Test A)
# Assay type: cell-based
# Parameters: expressed in transfected cells; host or cells: Jump-In T-REx CHO-K1 cells (ThermoFisher), induced with 10 ng/ml doxycycline for 24 h
# RUN CONDITIONS: RXFP1 Hu cAMP
QUANTITY MEASURED: Test A Sinf (%)
Write the answer as a number in %, unit excluded.

Look at this compound and give its reported Test A Sinf. COc1cc(F)c(-c2ccc(O)c(C(=O)O)c2)cc1C(=O)N[C@@H]1[C@H]2CC[C@H](C2)[C@@H]1C(=O)Nc1cccc(S(=O)(=O)C(F)(F)F)c1 (racemic)
107

Next: COc1cc(F)c(-c2cccc(C(=O)O)c2)cc1C(=O)N[C@H]1[C@@H](C(=O)Nc2ccc(F)c(S(=O)(=O)C(F)(F)F)c2)[C@@H]2C=C[C@H]1C2 (racemic)
98

Next: Cn1ncc2c(O[C@H]3CC[C@@](C)(C(=O)O)CC3)cc(C(=O)N[C@@H]3[C@H]4CC[C@H](C4)[C@@H]3C(=O)NCC3(C)CCC3)cc21
100

Next: COc1cc(F)c(O[C@H]2CC[C@@](C)(C(=O)O)CC2)cc1C(=O)N[C@H]1[C@H]2CC[C@H](CC2)[C@H]1C(=O)NCC1(C)CCC1 (racemic)
102

Next: COc1cc(C#N)c(O[C@H]2CC[C@@](C)(C(=O)O)CC2)cc1C(=O)N[C@@H]1[C@H]2CC[C@H](C2)[C@@H]1C(=O)NC[C@H]1C[C@@H](C)C1
101

====

Listed below: Test A Sinf values for each entry.
# SYSTEM UNDER TEST: human RXFP1 (Homo sapiens, UniProt Q9HBX9)
# EXPERIMENT SUMMARY: RXFP1 Hu cAMP (Test A)
# Assay type: cell-based
# Design: expressed in transfected cells; host or cells: Jump-In T-REx CHO-K1 cells (ThermoFisher), induced with 10 ng/ml doxycycline for 24 h
# RUN CONDITIONS: RXFP1 Hu cAMP
Write the answer as a number in %, unit excluded.

COMPOUND: COc1cc(C#N)c(O[C@H]2CC[C@@](C)(C(=O)O)CC2)cc1C(=O)Nc1cc(C)ccc1C(=O)NC12CC(C1)C2 [Example 173]
Test A Sinf (%): 126
//
COMPOUND: COc1cc(F)c(O[C@H]2CC[C@@](C)(C(=O)O)CC2)cc1C(=O)N[C@@H]1[C@@H]2CC[C@@H](C2)[C@@H]1C(=O)Nc1ccc(F)c(S(F)(F)(F)(F)F)c1 (racemic) [Example 371]
Test A Sinf (%): 125
//
COMPOUND: COc1cc(F)c(O[C@H]2CC[C@@](CO)(C(=O)O)CC2)cc1C(=O)N[C@H]1[C@@H](C(=O)NCC2(C)CCC2)[C@H]2CC[C@@H]1O2 (racemic) [Example 332]
Test A Sinf (%): 103
//
COMPOUND: COc1cc(C#N)c(O[C@H]2CC[C@@](C)(C(=O)O)CC2)cc1C(=O)N[C@H]1[C@@H](C(=O)NCC2(C)CCC2)[C@H]2CC[C@@H]1N2C(=O)OC(C)(C)C (racemic) [Example 334]
Test A Sinf (%): 96
//
COMPOUND: COc1cc(F)c(O[C@H]2CC[C@@](C)(C(=O)O)CC2)cc1C(=O)N[C@@H]1[C@H]2CC[C@H](C2)[C@@H]1C(=O)NCCC(F)(F)F [Example 596]
Test A Sinf (%): 105

Look at this compound and give its reported Test A Sinf. COc1cc(C#N)c(Oc2ccc(C(=O)O)cc2)cc1C(=O)N[C@@H]1[C@H]2CC[C@H](C2)[C@@H]1C(=O)NCC1(C)CCC1 [Example 483]
92

Next: COc1cc(C#N)c(O[C@H]2CC[C@@](C)(C(=O)O)CC2)cc1C(=O)Nc1cc(Cl)ccc1C(=O)NCC1CCCCCC1 [Example 157]
118

Next: COc1cc(F)c(O[C@H]2CC[C@@H](C(=O)O)CC2)cc1C(=O)N[C@@H]1CC(F)(F)C[C@@H]1C(=O)Nc1ccc(F)c(C(F)(F)F)c1 (racemic) [Example 493]
108

Next: COc1cc(F)c(-c2ccc(C(=O)O)c(F)c2)cc1C(=O)N[C@H]1[C@@H](C(=O)Nc2cccc(S(=O)(=O)C(F)(F)F)c2)[C@@H]2C=C[C@H]1C2 (racemic) [Example 232]
108

Next: COc1cc(F)c(OC[C@H]2C[C@H](C(=O)O)C2)cc1C(=O)N[C@@H]1[C@@H]2CC[C@@H](C2)[C@@H]1C(=O)Nc1cccc(S(=O)(=O)C(F)(F)F)c1 [Example 472]
91

Next: COc1cc(F)c(O[C@H]2CC[C@@H](C(=O)O)CC2)cc1C(=O)N[C@@H]1CCC[C@@H]1C(=O)Nc1ccc(F)c(C(F)(F)F)c1 [Example 492]
106
